Taken from patent US20180237497A1.

Exercise: state measured Kd for each of the binders provided.
biological target: T1, human IGF2^1-67 (mature insulin-like growth factor 2) (human, UniProt P01344 25-91, biotinylated (site not stated) where immobilised on the chip (Tables 1-4)); assay: SPR steady state, biotin-IGF2 on chip, pH 7.4
T1 construct: mature; also called mature IGF2; biotinylated IGF2
T1 sequence (P01344 25-91): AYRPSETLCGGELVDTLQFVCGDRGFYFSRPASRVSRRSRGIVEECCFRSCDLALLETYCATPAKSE
One number for each entry, in nM.

Below: 2 binders and their reported Kd.
[
  {
    "binder": "domain 11^AB5 K1631R (receptor, See m5; HI loop mutant) MKSNEHDDCQVTNPSTGHLFDLSSLSGRAGFTAAYAKGWGVYMSICGENENCPPGVGACFGQTRISVGKANKRLRYVDQVLQLVYKDGSPCPSKSGLSYKSVISFVCRPEAGPTNRPMLISLDRQTCTLFFSWHTPLACEQATECSV",
    "Kd (nM)": 13.5
  },
  {
    "binder": "domain 11^AB5 Q1632A (receptor, See m5; HI loop mutant) MKSNEHDDCQVTNPSTGHLFDLSSLSGRAGFTAAYAKGWGVYMSICGENENCPPGVGACFGQTRISVGKANKRLRYVDQVLQLVYKDGSPCPSKSGLSYKSVISFVCRPEAGPTNRPMLISLDKATCTLFFSWHTPLACEQATECSV",
    "Kd (nM)": 4.84
  }
]

Request: What value of Kd has been recorded for this entry: domain 11^AB5 S1602N (receptor, See m5) MKSNEHDDCQVTNPSTGHLFDLSSLSGRAGFTAAYAKGWGVYMSICGENENCPPGVGACFGQTRISVGKANKRLRYVDQVLQLVYKDGSPCPSKNGLSYKSVISFVCRPEAGPTNRPMLISLDKQTCTLFFSWHTPLACEQATECSV
Response: 7.93
